Measured values drawn from patent US20090018093 for this set.

Tested on: Immunoglobulin E (IgE) (Homo sapiens), P01854-1
Sequence (P01854 other isoform, or with tags, fused parts or gaps): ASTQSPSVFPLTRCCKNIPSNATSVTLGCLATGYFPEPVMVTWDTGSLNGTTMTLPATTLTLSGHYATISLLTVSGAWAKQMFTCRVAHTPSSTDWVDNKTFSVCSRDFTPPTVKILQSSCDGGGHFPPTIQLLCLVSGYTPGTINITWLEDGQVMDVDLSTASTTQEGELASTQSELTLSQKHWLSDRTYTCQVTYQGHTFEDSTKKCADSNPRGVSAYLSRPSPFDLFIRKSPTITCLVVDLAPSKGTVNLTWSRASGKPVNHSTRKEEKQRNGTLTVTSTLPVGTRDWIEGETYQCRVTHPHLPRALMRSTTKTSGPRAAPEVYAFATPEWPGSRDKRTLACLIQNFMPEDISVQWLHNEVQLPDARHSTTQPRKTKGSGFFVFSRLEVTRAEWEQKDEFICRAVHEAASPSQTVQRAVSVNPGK
Method summary: filter
Condition summary: ARC1666 chemistry + PS 3-4; 3' idT; DPBS Mg/Ca, BSA, RT

Input sequence	Kd / nM
AGCNCUGGGNGACCCAUNNNGNNGNNGCUN [ARC2971]	0.06

----------
Test system: Immunoglobulin E (IgE) (Homo sapiens), P01854-1
Method summary: filter
Condition summary: 2'-OMe at 4; 3' idT [4 (2'-OMe G); 38 (3' inverted dT)]; DPBS Mg/Ca, BSA
Property name: Kd (nM)

Input sequence	Value units	Value
GGGGCTACTTTATCCGTTCCTCCTAGTGGGTAGCCCCT [ARC1268]	nM	0.2

----------
Test system: Immunoglobulin E (IgE) (Homo sapiens), P01854-1
Method summary: filter
Condition summary: 2'-OMe U at 10; 3' idT [10 (2'-OMe U); 38 (3' inverted dT)]; DPBS Mg/Ca, BSA
Property name: Kd (nM)

Input sequence	Value
GGGGCTACTUTATCCGTTCCTCCTAGTGGGTAGCCCC [ARC1274]	2

----------
System: Immunoglobulin E (IgE) (Homo sapiens), P01854-1
Method summary: filter
Condition summary: ARC1666 pattern plus PS between A14 and U15; 3' idT [dI (written G) at 16,18,20; 2'-OMe 1-5,7,10-15,17,22,23; deoxy 6,8,9,16,18-21; PS 8/9,14/15,15/16,16/17,18/19,20/21; 3' inverted dT left out]; dPBS Ca/Mg + BSA, RT
pKd: −log10 of the molar value.

Input sequence	pKd
AGCCUGGGGACCCAUGGGGGGCU [ARC2981]	10.70

----------
System: Immunoglobulin E (IgE) (Homo sapiens), P01854-1
Method summary: filter
Condition summary: 2'-OMe at 20; 3' idT; DPBS Mg/Ca, BSA

Input sequence	Target desc	Value units	Kd
GGGGCTACTTTATCCGTTCCTCCTAGTGGGTAGCCCCN [ARC1284]	Immunoglobulin E (IgE) (Homo sapiens), P01854-1	nM	0.1

----------
Tested on: Immunoglobulin E (IgE) (Homo sapiens), P01854-1
Method summary: filter
Condition summary: 2'-OMe G2,G7,G17 and all C,U; rest 2'-deoxy; 3' idT [2'-OMe G2,C3,C4,U5,G7,C11,C12,C13,U15,G17,C22,U23; 3' inverted dT at 24]; DPBS Mg/Ca, 0.1 mg/mL BSA, RT
pKd: −log10 of the molar value.

Input sequence	pKd
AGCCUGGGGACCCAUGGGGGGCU [ARC1333]	8.82

----------
Test system: Immunoglobulin E (IgE) (Homo sapiens), P01854-1
Method summary: inhibition
Condition summary: ARC1666 chemistry; 5' and 3' 30 kDa PEG [dI at 16,18,20 (written as parent G); PS after 8,15,16,18,20; 2'-OMe/2'-deoxy mix (ARC1666 chemistry); 5' and 3' amine linker-30 kDa PEG left out]; FACS, IgE-FceR1 on SX38 cells
Property name: IC50 (nM)

Input sequence	Value
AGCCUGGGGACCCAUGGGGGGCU [ARC1790]	0.89

----------
Tested on: Immunoglobulin E (IgE) (Homo sapiens), P01854-1
Method summary: inhibition
Condition summary: 3' idT [3' idT left out]; FACS, 2.5 nM IgE; histamine release IC50 16.9 nM

Input sequence	Target desc	Value units	IC50
GGGGCTACTTTATCCGTTCCTCCTAGTGGGTAGCCCC [ARC656]	Immunoglobulin E (IgE) (Homo sapiens), P01854-1	nM	21.2

----------
System: Immunoglobulin E (IgE) (Homo sapiens), P01854-1
Method summary: filter
Condition summary: ARC1666 chemistry + PS 2-3; 3' idT; DPBS Mg/Ca, BSA, RT
pKd: −log10 of the molar value.

Input sequence	pKd
AGNCCUGGGNGACCCAUNNNGNNGNNGCUN [ARC2970]	10.40

----------
System: Immunoglobulin E (IgE) (Homo sapiens), P01854-1
Method summary: inhibition
Condition summary: 2'-OMe/2'-deoxy mix, PS linkages as in Table 17; 3' idT [phosphorothioate linkages (internal N, left out) between 5-6, 7-8, 8-9, 15-16, 17-18, 18-19, 19-20, 20-21; 2'-OMe/2'-deoxy mix (positions not given); 3' inverted dT at 24]; FACS, 2.5 nM IgE
pIC50: −log10 of the molar value.

Input sequence	pIC50
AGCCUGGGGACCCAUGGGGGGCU [ARC1572]	7.64

----------
System: Immunoglobulin E (IgE) (Homo sapiens), P01854-1
Method summary: filter
Condition summary: 2'-OMe at 12; 3' idT [12 (2'-OMe A); 38 (3' inverted dT)]; DPBS Mg/Ca, BSA
pKd: −log10 of the molar value.

Input sequence	pKd
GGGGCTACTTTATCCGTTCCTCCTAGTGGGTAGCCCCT [ARC1276]	8.52

----------
System: Immunoglobulin E (IgE) (Homo sapiens), P01854-1
Method summary: inhibition
Condition summary: ARC1666 chemistry; 5' and 3' 20 kDa PEG [dI at 16,18,20 (written as parent G); PS after 8,15,16,18,20; 2'-OMe/2'-deoxy mix (ARC1666 chemistry); 5' and 3' amine linker-20 kDa PEG left out]; FACS, IgE-FceR1 on SX38 cells
Property name: IC50 (nM)

Input sequence	Value units	Value
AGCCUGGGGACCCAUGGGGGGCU [ARC1785]	nM	2

----------
Tested on: Immunoglobulin E (IgE) (Homo sapiens), P01854-1
Method summary: filter
Condition summary: dRmY: 2'-deoxy A,G; 2'-OMe C,U; error 0.1; dPBS Ca/Mg + BSA, RT

Input sequence	Kd, nM
GGGAGAGGAGAGAACGUUCUACGCAGCGCAUCUGGGGACCCAAGAGGGGAUUCGCUGUCGAUCGAUCGAUCGAUG [ARC2001]	18

----------
Test system: Immunoglobulin E (IgE) (Homo sapiens), P01854-1
Method summary: filter
Condition summary: dRmY (2'-OMe C,U); 7-deaza-dG6 [7-deaza-dG at 6; 2'-OMe C3,C4,U5,C11,C12,C13,U15,C22,U23; A,G 2'-deoxy]; DPBS Mg/Ca, 0.1 mg/mL BSA, RT
pKd: −log10 of the molar value.
Property name: pKd

Input sequence	Property name	Value
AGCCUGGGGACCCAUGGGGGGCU [ARC903]	pKd	7.85

----------
Test system: Immunoglobulin E (IgE) (Homo sapiens), P01854-1
Method summary: inhibition
Condition summary: 2'-OMe/2'-deoxy mix, dI16,dI20, PS; 3' idT [16=dI, 20=dI (G parent); 24=3' inverted dT; phosphorothioate linkage N's left out]; FACS, 2.5 nM IgE
Property name: IC50 (nM)

Input sequence	Property name	Value
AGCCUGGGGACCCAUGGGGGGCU [ARC1642]	IC50	1.8

----------
Test system: Immunoglobulin E (IgE) (Homo sapiens), P01854-1
Method summary: filter
Condition summary: 2'-OMe C,U and G21; other A,G deoxy; 3' idT [2'-OMe: 3-5,11-13,15,21-23; deoxy: 1,2,6-10,14,16-20; 24 = 3' inverted dT]; dPBS Ca/Mg + BSA, RT

Input sequence	Kd
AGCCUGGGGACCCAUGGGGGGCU [ARC1263]	64 nM

----------
Tested on: Immunoglobulin E (IgE) (Homo sapiens), P01854-1
Method summary: filter
Condition summary: 2'-OMe C,U and G8; other A,G deoxy; 3' idT [2'-OMe: 3,4,5,8,11,12,13,15,22,23; 2'-deoxy: 1,2,6,7,9,10,14,16,17,18,19,20,21; 24 = 3' inverted dT]; dPBS Ca/Mg + BSA, RT
Property name: Kd (µM)

Input sequence	Property name	Value
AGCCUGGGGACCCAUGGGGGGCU [ARC1254]	Kd	0.024

----------
Test system: Immunoglobulin E (IgE) (Homo sapiens), P01854-1
Method summary: inhibition
Condition summary: 2'-F C,U; ELISA FceR1-Fc; FACS 14.4 nM (Table 25)
Property name: IC50 (nM)

Input sequence	Value
GGGAAAAGCGAAUCAUACACAAGACGUCAGUAAGAUUGAGUGUAUGGUUCCUGGUGGACAAUAAUGGCUCCGCCAGAGACCAACCGAGAA [rRfY clone SEQ 21]	3.7

----------
pKd for assorted sequences
Test system: Immunoglobulin E (IgE) (Homo sapiens), P01854-1
Method summary: filter
pKd: −log10 of the molar value.

Input sequence	pKd
GGGGCACATTTATCCGTCCCTCCTAGTGGTGTGCCCC [DNA clone SEQ 119]	9.22
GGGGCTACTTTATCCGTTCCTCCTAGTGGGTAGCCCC [ARC480]	9.70
GGGGCTACTTTATCCGTTCCTCTTAGTGGGTAGCCCC [ARC479]	9.40
GGGCAACTTTATCCGTTCCTCTTAGTGGGTTGCCCC [DNA clone SEQ 139]	9.40
GGGGCTACTTTATCCGTCCCTCCTAGTGGGTAGCCCC [ARC475]	9.30
GGGGCAGCTTTATCCGTACCTCCCAGTGGGCTGCCCC [ARC474]	9.15
GCGGGCAAATTCATCCGTCCCTCCTAGTGGTTTGCCC [DNA clone SEQ 147]	9.30
